- System: JHH-4 (Hepatocellular Carcinoma)
- method.description: Bliss excess, mean over the matrix (fraction); higher = more synergy
measurement.type: Bliss excess
Give bare numbers.

CC1(C)CCC(CN2CCN(c3ccc(C(=O)NS(=O)(=O)c4ccc(NCC5CCOCC5)c([N+](=O)[O-])c4)c(Oc4cnc5[nH]ccc5c4)c3)CC2)=C(c2ccc(Cl)cc2)C1 [Venetoclax] + CN(C)CCCOc1ccc(-c2ccc3ncc4c(c3c2)n(C2CCOCC2)c(=O)n4C)cn1 [AZD0156] (first compound max 1 µM, 7x7, partner max 1 µM)	-0.0078

// switching to the query molecule
Test item NC1(C(=O)N[C@@H](CCO)c2ccc(Cl)cc2)CCN(c2ncnc3[nH]ccc23)CC1 [Capivasertib] + C[C@@H]1COCCN1C2=NC(=NC(=C2)C3(CC3)[S@](=N)(=O)C)C4=C5C=CNC5=NC=C4 [AZD6738] (first compound max 10 µM, 7x7, partner max 10 µM) ; JHH-4 (Hepatocellular Carcinoma); reported Bliss excess was 0.0086

====

- Tested on: SJSA-1 (Osteosarcoma)
- method.description: combination Emax (second highest fraction inhibited in the dose matrix, 72 h); higher = more inhibition; extreme values may be limits of the assay
Could you label it Met if measured combination Emax is 0.3 or higher, and Not met otherwise?

Study these solved cases before continuing.
COc1cc2c(cc1OCCCCCOc1cc3c(cc1OC)C(=O)N1C=C(C)C[C@H]1C=N3)N=C[C@@H]1CC(C)=CN1C2=O [SG3199] + O=C(c1cc(Cc2n[nH]c(=O)c3ccccc23)ccc1F)N1CCN(C(=O)C2CC2)CC1 [Olaparib] (first compound max 0.001 µM, 7x7, partner max 10 µM)	Not met
CCN(CCO)CCCOc1ccc2c(Nc3cc(CC(=O)Nc4cccc(F)c4)[nH]n3)ncnc2c1 [AZD2811] + C=CCn1c(=O)c2cnc(Nc3ccc(N4CCN(C)CC4)cc3)nc2n1-c1cccc(C(C)(C)O)n1 [AZD1775] (first compound max 1 µM, partner max 1 µM)	Not met
CN(CCO)CC[C@H](CSc1ccccc1)Nc1ccc(S(=O)(=O)NC(=O)c2ccc(N3CCC([C@@H](O)c4ccccc4-c4ccc(Cl)cc4)CC3)cc2)cc1S(=O)(=O)C(F)(F)F [AZD4320] + CN(C)CCCOc1ccc(-c2ccc3ncc4c(c3c2)n(C2CCOCC2)c(=O)n4C)cn1 [AZD0156] (first compound max 1 µM, 7x7, partner max 1 µM)	Not met
C=CCn1c(=O)c2cnc(Nc3ccc(N4CCN(C)CC4)cc3)nc2n1-c1cccc(C(C)(C)O)n1 [AZD1775] + O=C(c1cc(Cc2n[nH]c(=O)c3ccccc23)ccc1F)N1CCN(C(=O)C2CC2)CC1 [Olaparib] (first compound max 1 µM, partner max 10 µM)	Not met

Given COc1cccc2c1C(=O)c1c(O)c3c(c(O)c1C2=O)C[C@@](O)(C(=O)CO)C[C@@H]3O[C@H]1C[C@H](N)[C@H](O)[C@H](C)O1 [Doxorubicin] + Cc1cc2ncnn2cc1Nc1ncc2c(n1)n(C1CCOCC1)c(=O)n2C [AZD7648] (first compound max 1 µM, 7x7, partner max 10 µM) , state whether its combination Emax is at least 0.3.
Met

====

- Test system: NCI-H661 (Non-Small Cell Lung Carcinoma)
- method.description: Bliss excess, mean over the matrix (fraction); higher = more synergy
measurement.type: Bliss excess
Numbers only.

Cc1c2c(nn1C)CSCc1cc(n(C)n1)CSc1cc(c3ccccc3c1)OCCCc1c(C(=O)O)n(C)c3c-2c(Cl)ccc13 [AZD5991] + Cc1cc2ncnn2cc1Nc1ncc2c(n1)n(C1CCOCC1)c(=O)n2C [AZD7648] (first compound max 1 µM, 7x7, partner max 10 µM)	-0.0546
Cn1cnc2c(F)c(Nc3ccc(Br)cc3Cl)c(C(=O)NOCCO)cc21 [Selumetinib] + C[C@@H]1COCCN1C2=NC(=NC(=C2)C3(CC3)[S@](=N)(=O)C)C4=C5C=CNC5=NC=C4 [AZD6738] (first compound max 10 µM, 7x7, partner max 10 µM)	-0.0627
CN(CCO)CC[C@H](CSc1ccccc1)Nc1ccc(S(=O)(=O)NC(=O)c2ccc(N3CCC([C@@H](O)c4ccccc4-c4ccc(Cl)cc4)CC3)cc2)cc1S(=O)(=O)C(F)(F)F [AZD4320] + C=CCn1c(=O)c2cnc(Nc3ccc(N4CCN(C)CC4)cc3)nc2n1-c1cccc(C(C)(C)O)n1 [AZD1775] (first compound max 1 µM, partner max 1 µM)	-0.0018
Cc1c2c(nn1C)CSCc1cc(n(C)n1)CSc1cc(c3ccccc3c1)OCCCc1c(C(=O)O)n(C)c3c-2c(Cl)ccc13 [AZD5991] + C[C@@H](Nc1cc(F)cc(F)c1)c1cc(C(=O)N(C)C)cc2c(=O)cc(N3CCOCC3)oc12 [AZD8186] (first compound max 1 µM, 7x7, partner max 3 µM)	0.0181
COc1nnc2ccc(N3CCC(c4ccc(OCCN5CCN(C)C(=O)[C@H]5C)cc4)CC3)nn12 [AZD5153] + CC1(C)CCC(CN2CCN(c3ccc(C(=O)NS(=O)(=O)c4ccc(NCC5CCOCC5)c([N+](=O)[O-])c4)c(Oc4cnc5[nH]ccc5c4)c3)CC2)=C(c2ccc(Cl)cc2)C1 [Venetoclax] (first compound max 1 µM, 7x7, partner max 1 µM)	-0.0574

Record Bliss excess for all entries; do not skip any.
1. COc1nnc2ccc(N3CCC(c4ccc(OCCN5CCN(C)C(=O)[C@H]5C)cc4)CC3)nn12 [AZD5153] + Cc1c2c(nn1C)CSCc1cc(n(C)n1)CSc1cc(c3ccccc3c1)OCCCc1c(C(=O)O)n(C)c3c-2c(Cl)ccc13 [AZD5991] (first compound max 1 µM, 7x7, partner max 1 µM)
2. Cn1cnc2c(F)c(Nc3ccc(Br)cc3Cl)c(C(=O)NOCCO)cc21 [Selumetinib] + C=CCn1c(=O)c2cnc(Nc3ccc(N4CCN(C)CC4)cc3)nc2n1-c1cccc(C(C)(C)O)n1 [AZD1775] (first compound max 10 µM, partner max 1 µM)

1. 0.031
2. -0.0891
